# TESTED_TARGET: UniProtKB P00735
# PROCEDURE_SUMMARY: Concentration at which the clotting time was prolonged by twice that of the control by inhibiting thrombin
# DETAILS: read-out: I50
pIC50: −log10 of the molar value.
MEASURE: pIC50

>  <COMPOUND>
CN(C)c1cccc2c(S(=O)(=O)NC(CCCN=C(N)N)C(=O)N(CC(=O)O)CC3CCCO3)cccc12 (configuration not stated)

>  <MEASURE>
pIC50

>  <MEASURED>
5.70

$$$$
>  <COMPOUND>
Cc1ccc2ccc(S(=O)(=O)NC(CCCN=C(N)N)C(=O)N3CCC(C)CC3C(=O)O)cc2c1 (configuration not stated)

>  <MEASURE>
pIC50

>  <MEASURED>
6.82

$$$$
>  <COMPOUND>
COc1cc2ccc(S(=O)(=O)NC(CCCN=C(N)N)C(=O)N3CCCCC3C(=O)O)cc2cc1OC (configuration not stated)

>  <MEASURE>
pIC50

>  <MEASURED>
5.35

$$$$
>  <COMPOUND>
Cc1ccc2ccc(S(=O)(=O)NC(CCCN=C(N)N)C(=O)N3CCC(C(C)C)CC3C(=O)O)cc2c1 (configuration not stated)

>  <MEASURE>
pIC50

>  <MEASURED>
7.00

$$$$

1: COc1cc2ccc(S(=O)(=O)NC(CCCN=C(N)N)C(=O)N3CCCC(C(=O)O)C3)cc2cc1OC (configuration not stated)
2: CCCCCN(CC(=O)O)C(=O)C(CCCN=C(N)N)NS(=O)(=O)c1ccc2cc(OC)c(OC)cc2c1 (configuration not stated)
// pick min by pIC50: 1 , 2 Pick one and reply with its label. 1

###

# TESTED_TARGET: Prothrombin (Bos taurus, UniProt P00735)
# PROCEDURE_SUMMARY: Concentration at which the clotting time was prolonged by twice that of the control by inhibiting thrombin
# Type: functional
# DETAILS: read-out: I50
MEASURE: IC50 (nM)

Some entries whose results are on file:
>  <COMPOUND>
COc1ccc2ccc(S(=O)(=O)NC(CCCN=C(N)N)C(=O)N3CCCCCC3C(=O)O)cc2c1 (stereo not given)

>  <MEASURE>
IC50

>  <MEASUREMENT_UNIT>
nM

>  <MEASURED>
2500

$$$$
>  <COMPOUND>
CC1CCN(C(=O)C(CCCN=C(N)N)NS(=O)(=O)c2ccc3c(c2)Sc2ccccc2O3)C(C(=O)O)C1 (stereo not given)

>  <MEASURE>
IC50

>  <MEASUREMENT_UNIT>
nM

>  <MEASURED>
250

$$$$
>  <COMPOUND>
CCCCN(CC(=O)O)C(=O)C(CCCN=C(N)N)NS(=O)(=O)c1ccc2oc3ccccc3c2c1 (stereo not given)

>  <MEASURE>
IC50

>  <MEASUREMENT_UNIT>
nM

>  <MEASURED>
300

$$$$

P: CCCCN(CC(=O)O)C(=O)C(CCCN=C(N)N)NS(=O)(=O)c1ccc2c(c1)CCCC2 (stereo not given)
Q: COCCN(CC(=O)O)C(=O)C(CCCN=C(N)N)NS(=O)(=O)c1ccc2c(c1)OCCO2 (stereo not given)
// pick min by IC50: P , Q Pick one and reply with its label. Q

###

# TESTED_TARGET: Prothrombin (Bos taurus)
# PROCEDURE_SUMMARY: Concentration at which the clotting time was prolonged by twice that of the control by inhibiting thrombin
# DETAILS: read-out: I50
MEASURE: IC50 (µM)

Some entries whose results are on file:
>  <COMPOUND>
CC(C)C1CCN(C(=O)C(CCCN=C(N)N)NS(=O)(=O)c2ccc3cc(Cl)ccc3c2)C(C(=O)O)C1 (stereo not drawn)

>  <MEASUREMENT_UNIT>
µM

>  <IC50>
0.5

$$$$
>  <COMPOUND>
COc1cc2ccc(S(=O)(=O)NC(CCCN=C(N)N)C(=O)N(CC(=O)O)C3CCCCC3)cc2cc1OC (stereo not drawn)

>  <MEASUREMENT_UNIT>
µM

>  <IC50>
5

$$$$
>  <COMPOUND>
COCCN(C(=O)C(CCCN=C(N)N)NS(=O)(=O)c1ccc2cc(OC)c(OC)cc2c1)C(C)C(=O)O (stereo not drawn)

>  <MEASUREMENT_UNIT>
µM

>  <IC50>
5

$$$$
>  <COMPOUND>
COc1ccc2ccc(S(=O)(=O)NC(CCCN=C(N)N)C(=O)N(CC(=O)O)CC3CCCO3)cc2c1 (stereo not drawn)

>  <MEASUREMENT_UNIT>
µM

>  <IC50>
0.15

$$$$

I: COc1ccc2ccc(S(=O)(=O)NC(CCCN=C(N)N)C(=O)N3CCC(C(C)C)CC3C(=O)O)cc2c1 (stereo not drawn)
II: CCOc1cc2ccc(S(=O)(=O)NC(CCCN=C(N)N)C(=O)N(CCOC)CC(=O)O)cc2cc1OCC (stereo not drawn)
III: COCCN(CC(=O)O)C(=O)C(CCCN=C(N)N)NS(=O)(=O)c1cccc2ccccc12 (stereo not drawn)
IV: CCCCN(CC(=O)O)C(=O)C(CCCN=C(N)N)NS(=O)(=O)c1cccc2c(N(C)C)cccc12 (stereo not drawn)
Kindly order the items shown according to IC50, from the highest value down. Reply with the labels, ordered as the question asks. III, II, IV, I
